MEASURED ON: GST-TMEM106B (truncated, comprising amino acids 122-210 of SEQ ID NO:1) (Homo sapiens, UniProt Q9NUM4)
Sequence (Q9NUM4 122-210): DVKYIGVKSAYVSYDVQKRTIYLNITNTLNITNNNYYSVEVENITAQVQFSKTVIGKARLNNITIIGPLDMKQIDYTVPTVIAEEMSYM
PROTOCOL DETAILS: Pre-mix epitope binning of anti-TMEM106B antibodies (Carterra / Lake Pharma)
Format: binding
SETUP CONDITIONS: epitope bin number; pre-mix binning on truncated GST-TMEM106B
Give Binding Community/Bin for every item shown.
Give bare numbers.

// known answers, use as guide
MOLECULE | ENDPOINT LABEL | OBSERVED
TM-24: anti-TMEM106B monoclonal antibody; CDR-H1-3 SEQ ID NO: 12, 45, 88; CDR-L1-3 SEQ ID NO: 140, 170, 204 (antibody, V domains shown) VH: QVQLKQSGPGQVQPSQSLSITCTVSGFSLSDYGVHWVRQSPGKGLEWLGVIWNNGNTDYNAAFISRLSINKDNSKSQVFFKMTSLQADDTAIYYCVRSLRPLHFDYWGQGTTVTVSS VL: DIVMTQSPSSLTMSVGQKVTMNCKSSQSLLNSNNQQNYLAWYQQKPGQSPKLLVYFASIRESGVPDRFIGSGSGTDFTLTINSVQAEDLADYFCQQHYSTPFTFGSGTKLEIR | Binding Community/Bin | 2
TM-84: anti-TMEM106B monoclonal antibody; VH SEQ ID NO: 489, VL SEQ ID NO: 524 (antibody, V domains shown, Variable Heavy Chain -- TM-84; Variable Light Chain -- TM-84) VH: QVQLQQSGAELVKPGASVKMSCKASGYTFTTFPIEWMKQNHGKSLEWIGNFHPYNDDTKYNEKFKGKATLTVEKSSSTVYLELSRLTSDDSAVYYCARYFYGGMDYWGQGTSVTVSS VL: DIQMTQSPASLSVSVGETVTITCRASENIYSSLGWYHQKQGKSPQLLVFAATNLADGVPSRFSGSGSGTQYSLKINSLQSEDFGTYYCQHLWSVPWTFGGGTKLEIK | Binding Community/Bin | 3
TM-32: anti-TMEM106B monoclonal antibody; CDR-H1-3 SEQ ID NO: 13, 63, 106; CDR-L1-3 SEQ ID NO: 145, 160, 200 (antibody, V domains shown) VH: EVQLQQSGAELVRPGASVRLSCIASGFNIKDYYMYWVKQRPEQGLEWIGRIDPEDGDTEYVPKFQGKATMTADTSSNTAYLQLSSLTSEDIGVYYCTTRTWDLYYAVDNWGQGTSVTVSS VL: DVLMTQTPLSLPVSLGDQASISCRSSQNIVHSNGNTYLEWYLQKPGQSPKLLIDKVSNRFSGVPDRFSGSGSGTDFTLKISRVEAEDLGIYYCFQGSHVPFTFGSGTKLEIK | Binding Community/Bin | 2

Binding Community/Bin for TM-76: anti-TMEM106B monoclonal antibody; VH SEQ ID NO: 481, VL SEQ ID NO: 516 (antibody, V domains shown, Variable Heavy Chain -- TM-76; Variable Light Chain -- TM-76) VH: QVTLKESGPGILQPSQTLSLTCSFSGFSLSTSGMGVSWIRKPSGKGLEWLAHIFWDDDKRYNLFLKSRLTVSKDTSSNQVFLMITSVDTTDTATYYCARMGRQRDYFDYWGQGTSLTVSS VL: QIILTQSPAIMSASLGEEITLTCSASLSISYVHWYQQKSGASPKLLIYGTSNLASGVPSRFSGSGSGTFYSLTISSVEAEDAADYYCHQWSIYRTFGGGTKLEMK is 2
